biological target: GnRH receptor (HepG2 membrane preparation); test: GnRH in vitro binding to HepG2 membrane preparation (radioreceptor assay); parameters: species or system human; details: Labeled ligand 125I-[D-Lys6]-GnRH; 95% confidence interval in parentheses; 4° C.
Non-standard residues stand in square brackets, D forms with d. Residues, ends and D or L forms follow the SMILES beside them. pGlu = O=C1CC[C@@H](C(=O)O)N1
quantity: Kd (nM)
Dear colleague, please return just the value in nM, with no unit written.

CC(C)C[C@H](NC(=O)[C@@H](CCCCN)NC(=O)[C@H](Cc1ccc(O)cc1)NC(=O)[C@H](CO)NC(=O)[C@H](Cc1c[nH]c2ccccc12)NC(=O)[C@H](Cc1c[nH]cn1)NC(=O)[C@@H]1CCC(=O)N1)C(=O)N[C@@H](CCCNC(=N)N)C(=O)N1CCC[C@H]1C(=O)NCC(N)=O [[D-Lys^6]-GnRH]; 9.17
CC(C)C[C@H](NC(=O)[C@H](CO)NC(=O)[C@H](Cc1ccc(O)cc1)NC(=O)[C@H](Cc1c[nH]cn1)NC(=O)[C@@H]1CCC(=O)N1)C(=O)N[C@@H](CCC(=O)O)C(=O)N[C@@H](Cc1c[nH]c2ccccc12)C(=O)N[C@@H](CCCCN)C(=O)N1CCC[C@H]1C(=O)NCC(N)=O [lGnRH] ([pGlu]HYSLEWKPG-NH2); 66.6
CC(C)C[C@H](NC(=O)CNC(=O)[C@H](Cc1ccc(O)cc1)NC(=O)[C@H](CO)NC(=O)[C@H](Cc1c[nH]c2ccccc12)NC(=O)[C@H](Cc1c[nH]cn1)NC(=O)[C@@H]1CCC(=O)N1)C(=O)N[C@@H](CCCNC(=N)N)C(=O)N1CCC[C@H]1C(=O)NCC(N)=O [GnRH, reference compound]; 9.17

We now examine a further compound.
Query block: Look up Kd with GnRH receptor (HepG2 membrane preparation) for this compound: CC(C)C[C@H](NC(=O)CNC(=O)[C@H](Cc1c[nH]cn1)NC(=O)[C@H](CO)NC(=O)[C@H](Cc1c[nH]c2ccccc12)NC(=O)[C@H](Cc1c[nH]cn1)NC(=O)[C@@H]1CCC(=O)N1)C(=O)N[C@@H](CC(N)=O)C(=O)N1CCC[C@H]1C(=O)NCC(N)=O [cfGnRH] ([pGlu]HWSHGLNPG-NH2)
Result block: 17.9

====

test system: HepG2 cells; experiment: HepG2 cell proliferation (cell counting); format: cell-based
quantity: Suppression of HepG2 growth ED50 (nM)
Dear colleague, please return just the value in nM, with no unit written.

Query block: # Suppression of HepG2 growth ED50 lookup, item CC(C)C[C@H](NC(=O)[C@@H](CCCCN)NC(=O)[C@H](Cc1ccc(O)cc1)NC(=O)[C@H](CO)NC(=O)[C@H](Cc1c[nH]c2ccccc12)NC(=O)[C@H](Cc1c[nH]cn1)NC(=O)[C@@H]1CCC(=O)N1)C(=O)N[C@@H](CCCNC(=N)N)C(=O)N1CCC[C@H]1C(=O)NCC(N)=O [[D-Lys^6]-GnRH]
Result block: 2.00

====

Biological target: GnRH binding sites (normal rat liver)
Assay: GnRH in vitro binding to normal rat liver membrane preparation
Details: Labeled ligand 125I-[D-Lys6]-GnRH; 95% confidence interval in parentheses; read-out: Receptor Binding Activity (Kd, nM) Normal Rat Liver
Protocol: Cells were grown to confluence as previously described and harvested from the flasks by using a rubber policeman. The cells were washed in normal assay buffer (([…] Tris[hydroxymethyl] aminomethane[Tris]-HCl), containing 1 mM dithiothreitol and 0.5% BSA [fraction-V] (pH 7.6)) and precipitated by centrifugation at 500g for 5 minutes at 4° C. […] The displacement curves were fitted for both single and two classes of binding sites by computer calculated lines, as described.
Non-standard residues stand in square brackets, D forms with d. Residues, ends and D or L forms follow the SMILES beside them. pGlu = O=C1CC[C@@H](C(=O)O)N1
quantity: Kd (nM)
Dear colleague, please return just the value in nM, with no unit written.

CC(C)C[C@H](NC(=O)[C@H](Cc1c[nH]c2ccccc12)NC(=O)CNC(=O)[C@H](Cc1ccc(O)cc1)NC(=O)[C@H](CO)NC(=O)[C@H](Cc1c[nH]c2ccccc12)NC(=O)[C@H](Cc1c[nH]cn1)NC(=O)[C@@H]1CCC(=O)N1)C(=O)N1CCC[C@H]1C(=O)NCC(N)=O [sGnRH] ([pGlu]HWSYGWLPG-NH2); 1560
CC(C)C[C@H](NC(=O)[C@@H](CCCCN)NC(=O)[C@H](Cc1ccc(O)cc1)NC(=O)[C@H](CO)NC(=O)[C@H](Cc1c[nH]c2ccccc12)NC(=O)[C@H](Cc1c[nH]cn1)NC(=O)[C@@H]1CCC(=O)N1)C(=O)N[C@@H](CCCNC(=N)N)C(=O)N1CCC[C@H]1C(=O)NCC(N)=O [[D-Lys^6]-GnRH]; 769

Query block: Look up Kd with GnRH binding sites (normal rat liver) for this compound: CC(C)C[C@H](NC(=O)CNC(=O)[C@H](Cc1ccc(O)cc1)NC(=O)[C@H](CO)NC(=O)[C@H](Cc1c[nH]c2ccccc12)NC(=O)[C@H](Cc1c[nH]cn1)NC(=O)[C@@H]1CCC(=O)N1)C(=O)N[C@@H](CCCNC(=N)N)C(=O)N1CCC[C@H]1C(=O)NCC(N)=O [GnRH, reference compound]
Result block: 384

Query block: Look up Kd with GnRH binding sites (normal rat liver) for this compound: CC(C)C[C@H](NC(=O)[C@H](CO)NC(=O)[C@H](Cc1ccc(O)cc1)NC(=O)[C@H](Cc1c[nH]cn1)NC(=O)[C@@H]1CCC(=O)N1)C(=O)N[C@@H](CCC(=O)O)C(=O)N[C@@H](Cc1c[nH]c2ccccc12)C(=O)N[C@@H](CCCCN)C(=O)N1CCC[C@H]1C(=O)NCC(N)=O [lGnRH] ([pGlu]HYSLEWKPG-NH2)
Result block: 8330

Query block: Look up Kd with GnRH binding sites (normal rat liver) for this compound: CC(C)C[C@H](NC(=O)CNC(=O)[C@H](Cc1c[nH]cn1)NC(=O)[C@H](CO)NC(=O)[C@H](Cc1c[nH]c2ccccc12)NC(=O)[C@H](Cc1c[nH]cn1)NC(=O)[C@@H]1CCC(=O)N1)C(=O)N[C@@H](CC(N)=O)C(=O)N1CCC[C@H]1C(=O)NCC(N)=O [cfGnRH] ([pGlu]HWSHGLNPG-NH2)
Result block: 8330

These entries and their values trace back to patent US5760000A.
